Cited source for all entries: patent US6399634B1

I'd be grateful if you could share measured Uterine EPO (V. max) for these entries.
# System: Uterine Eosinophil Peroxidase (EPO)
# assay.overview: Uterine Eosinophil Peroxidase (EPO) Assay on uteri of dosed OVX rats
# Assay type: in vivo, Sprague Dawley rats
# condition.info: female, Sprague Dawley, rat, in vivo, po, 0.1 mg/kg, 4 days
Counter-ions that a name gives are not always drawn.
Answers are plain numbers.

>>> df
                                   compound                          target_desc  numeric_result
0  Oc1ccc(-c2sc3cc(O)ccc3c2C(O)c2ccc(OCCN3CCCCC3)cc2)cc1 (stereo not drawn)  Uterine Eosinophil Peroxidase (EPO)             7.4

Working through the 5 compounds below one at a time, give Uterine EPO (V. max) for each.
1. CC(C)(C)C(=O)Oc1ccc(-c2sc3cc(OC(=O)C(C)(C)C)ccc3c2Cc2ccc(OCCN3CCCCC3)cc2)cc1 [(q)-Ex17, Hydrochloride]
2. Oc1ccc(-c2sc3cc(O)ccc3c2Cc2ccc(OCCN3CCCCC3)cc2)cc1 [(k)-Ex11, Hydrochloride]
3. CCCCS(=O)(=O)Oc1ccc(-c2sc3cc(OS(=O)(=O)CCCC)ccc3c2Cc2ccc(OCCN3CCCCC3)cc2)cc1 [(r)-Ex18, Hydrochloride]
4. COc1ccc(-c2sc3cc(OC)ccc3c2Cc2ccc(OCCN3CCCCC3)cc2)cc1 [(p)-Ex16, Hydrochloride]
5. O=C(Oc1ccc(-c2sc3cc(OC(=O)c4ccccc4)ccc3c2Cc2ccc(OCCN3CCCCC3)cc2)cc1)c1ccccc1 [(s)-Ex21]

[3.1, 7.3, 1.8, 5.8, 1.8]
